test: Induction of nitric oxide release in phosphate buffer at 10^-4 M at pH 7.4 after 4 hrs by Griess colorimetric method in presence of N-acetylcysteine; format: physicochemical; settings: pH 7.4, 4 h, 100 µM
I'd appreciate it if you could supply Activity values for the items below.
Enter your answer as a number in mol/mol; do not include the unit.

I'd like to know its Activity. The compound in question is `C=CCn1c(SCC(=O)Nc2ccc(/C(C)=N/O)cc2)nnc1-c1ccccc1`
0.24

Which Activity is listed for `C=CCn1c(SCC(=O)Nc2ccc(/C(C)=N/O)cc2)nnc1-c1ccc(OC)c(OC)c1` ?
0.35

// returns reported Activity for input `C=CCn1c(SCC(=O)Nc2ccc(/C(C)=N/O)cc2)nnc1-c1cc(OC)c(OC)c(OC)c1`
0.24

// returns reported Activity for input `C=CCn1c(SCC(=O)Nc2ccc(/C(C)=N/O)cc2)nnc1-c1ccc(OC)cc1`
0.32

Field request: Activity | item: `CCn1c(SCC(=O)Nc2ccc(/C(C)=N/O)cc2)nnc1-c1ccccc1`
0.21

What does the data say about its Activity? Entry: `COc1cc(-c2nnc(SCC(=O)Nc3ccc(/C(C)=N/O)cc3)n2-c2ccccc2)cc(OC)c1OC`
0.25

I have this compound here, `CCn1c(SCC(=O)Nc2ccc(/C(C)=N/O)cc2)nnc1-c1ccc(OC)cc1` , and I need its recorded Activity.
0.29

Query: Activity; subject: `COc1ccc(-c2nnc(SCC(=O)Nc3ccc(/C(C)=N/O)cc3)n2-c2ccccc2)cc1`
0.29

What measured Activity goes with `COc1ccc(-c2nnc(SCC(=O)Nc3ccc(/C(C)=N/O)cc3)n2-c2ccccc2)cc1OC` ?
0.39

I would be grateful if you could share the reported Activity for `CCn1c(SCC(=O)Nc2ccc(/C(C)=N/O)cc2)nnc1-c1ccc(OC)c(OC)c1` .
0.43

Entry `CCn1c(SCC(=O)Nc2ccc(/C(C)=N/O)cc2)nnc1-c1cc(OC)c(OC)c(OC)c1` : reported Activity = ?
0.22

Find the recorded Activity belonging to `C/C(=N\O)c1ccc(NC(=O)CSc2nnc(-c3ccccc3)n2-c2ccccc2)cc1` and report it.
0.23
